The reported measurements were obtained from patent US20230088461A1.

- Tested target: GPC3 (analyte of Tables 9 and 10) (UniProt P51654 25-559, limits assumed)
- Protocol summary: SPR (Biacore T200), purified antibody captured through Fc, GPC3 as analyte, 1:1 model
Readout label: kon (M⁻¹ s⁻¹)
I only need the number, in M⁻¹ s⁻¹, no unit after it.

[in] Quick one: kon of 9VH1VL3-hIgG1 (antibody, V domains shown, Humanized LAb19309, full-length human IgG1/kappa; also called 9VH1VL3-hIgG1 mAb) VH: QVQLVQSGAEVKKPGASVKVSCKASGYTFTDYEMHWVRQAPGQRLEWMGGIDPETGNTAYSQKFKGRVTITRDTSASTAYMELSSLRSEDTAVYYCARYYSFAYWGQGTLVTVSS VL: DIVMTQSPDSLAVSLGERATINCRSSQTIVHSNGNTYLEWYQQKPGQPPKLLIYKVSNRFSGVPDRFSGSGSGTDFTLTISSLQAEDVAVYYCFQVSHVPYTFGGGTKLEIKR ?
[out] 91300
